ED50 for assorted compounds
system: Rattus norvegicus; experiment: Antiallergic activity in iv dosed Sprague-Dawley rat assessed as inhibition of egg albumin-induced passive cutaneous anaphylaxis; assay type: functional; conditions: Rattus norvegicus, Sprague-Dawley, iv
Output should be the measured figure followed by the unit it is expressed in.

Example compounds with recorded ED50:
COc1ccc2nc(C(=O)O)cc(O)c2c1: 82.2 µmol/kg
O=C(O)C(=O)Nc1ccccc1: 245 µmol/kg
N#Cc1ccc(NC(=O)C(=O)O)cc1: 40.5 µmol/kg
N#Cc1ccc(Cl)c(NC(=O)C(=O)O)c1: 1.74 µmol/kg
O=C(O)c1cc(O)c2cccc(O)c2n1 [XANTHURENATE]: 114 µmol/kg
N#Cc1cc(NC(=O)C(=O)O)ccc1Cl: 2.06 µmol/kg
O=C(O)c1cc(=O)c2c(OCC(O)COc3cccc4oc(C(=O)O)cc(=O)c34)cccc2o1 [CROMOLYN SODIUM]: 6.1 µmol/kg
O=C(O)c1cc(=O)c2ccccc2[nH]1 [TRANSTORINE]: 42.4 µmol/kg
N#Cc1cccc(NC(=O)C(=O)O)c1: 3.38 µmol/kg
Nc1ccc2oc(C(=O)O)cc(=O)c2c1: 43.5 µmol/kg

Recorded ED50 (compound Nc1ccc2nc(C(=O)O)cc(O)c2c1 ): 48.3 µmol/kg

Recorded ED50 (compound N#Cc1cc(C#N)cc(NC(=O)C(=O)O)c1 ): 0.84 µmol/kg

Recorded ED50 (compound N#Cc1ccccc1NC(=O)C(=O)O ): 10.1 µmol/kg

Recorded ED50 (compound O=C(O)c1cc(=O)c2cc([N+](=O)[O-])ccc2o1 ): 6.48 µmol/kg

From: ChEMBL document CHEMBL3244080
